Consider the following molecules; for each one, report its Th-T fluorescence of Aβ42 (sheet Fig. 7a), mean of three wells.
- target: Aβ42 (Homo sapiens, UniProt P05067)
- Sequence (P05067 672-713): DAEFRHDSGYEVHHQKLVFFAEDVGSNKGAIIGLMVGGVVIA
- assayMethodText: Th-T (thioflavin-T) assay of Aβ42 aggregation
- Format: biochemical
- runConditions: head suffix _10 (concentration 10); reading M63
// no unit, no text: just the number

Lab book: Th-T fluorescence of Aβ42 (sheet Fig. 7a), mean of three wells of C=C1CCC2C(C)(CCC=C(C)C)C(O)CCC2(C)C1Cc1c(OC)oc(CO)c(C(=O)OC)c1=O (centres unmarked) noted as 1.556

Lab book: Th-T fluorescence of Aβ42 (sheet Fig. 7a), mean of three wells of C=C1CCC2C(C)(CCC=C(C)C)C(O)CCC2(C)C1Cc1c(OC)oc(CO)c(C)c1=O (centres unmarked) noted as 3.408

Lab book: Th-T fluorescence of Aβ42 (sheet Fig. 7a), mean of three wells of C=C1CC[C@@H]2[C@](C)(CC[C@H]3O[C@H](C=C(C)C)C[C@@]23C)[C@@H]1Cc1c(OC)oc(CO)c(C)c1=O noted as 3.458

Lab book: Th-T fluorescence of Aβ42 (sheet Fig. 7a), mean of three wells of C=C1CCC2C(C)(CCC=C(C)C)C(O)CCC2(C)C1Cc1c(OC)oc(C)c(C(=O)OC)c1=O (centres unmarked) noted as 2.709

Lab book: Th-T fluorescence of Aβ42 (sheet Fig. 7a), mean of three wells of C=C1CC[C@@H]2[C@](C)(CC[C@H]3O[C@H](C=C(C)C)C[C@@]23C)[C@@H]1Cc1c(OC)oc(CO)c(C(=O)OC)c1=O noted as 0.5289

These data points were gathered from paper PMC7156458.
